- Assay type: in vivo, NSG mice
- measurement_setup: NSG, mouse, in vivo, po, 40 mg/kg
endpoint: half-life (min)
Return type: number; implicit unit min.

Input: Can you look up the measured half-life of Cc1nc(Nc2ncc(C(=O)Nc3c(C)cccc3Cl)s2)cc(N2CCN(CCO)CC2)n1 [dasatinib] for me?
Output: 20.4

----------
- Assay type: in vivo, NSG mice
- measurement_setup: NSG, mouse, in vivo, po, 20 mg/kg
endpoint: Cmax (ng/mL)
Return type: number; implicit unit ng/mL.

Input: Can you look up the measured Cmax of `Cc1nc(Nc2ncc(C(=O)Nc3c(C)cccc3Cl)s2)cc(N2CCN(CCO)CC2)n1` for me?
Output: 102

----------
- Type: in vivo, NSG mice
- measurement_setup: NSG, mouse, in vivo, po, 40 mg/kg
endpoint: CL/F (mL/min/kg)
Return type: number; implicit unit mL/min/kg.

Input: Can you look up the measured CL/F of `Cc1nc(Nc2ncc(C(=O)Nc3c(C)cccc3Cl)s2)cc(N2CCN(CCO)CC2)n1` for me?
Output: 341

----------
- Type: in vivo, NSG mice
- measurement_setup: NSG, mouse, in vivo, po, 30 mg/kg
endpoint: half-life (h)
Return type: number; implicit unit h.

Input: Can you look up the measured half-life of Cc1ccc(C(=O)Nc2ccc(CN3CCN(C)CC3)c(C(F)(F)F)c2)cc1C#Cc1cnc2cccnn12 [ponatinib] for me?
Output: 1.92

----------
- Type: in vivo, NSG mice
- measurement_setup: NSG, mouse, in vivo, po, 20 mg/kg
endpoint: half-life (min)
Return type: number; implicit unit min.

Input: Can you look up the measured half-life of `Cc1nc(Nc2ncc(C(=O)Nc3c(C)cccc3Cl)s2)cc(N2CCN(CCO)CC2)n1` for me?
Output: 21

----------
- Type: in vivo, NSG mice
- measurement_setup: NSG, mouse, in vivo, po, 15 mg/kg
endpoint: half-life (h)
Return type: number; implicit unit h.

Input: Can you look up the measured half-life of `Cc1ccc(C(=O)Nc2ccc(CN3CCN(C)CC3)c(C(F)(F)F)c2)cc1C#Cc1cnc2cccnn12` for me?
Output: 1.92

----------
- Format: in vivo, NSG mice
- measurement_setup: NSG, mouse, in vivo, po, 30 mg/kg
endpoint: CL/F (mL/min/kg)
Return type: number; implicit unit mL/min/kg.

Input: Can you look up the measured CL/F of Cc1ccc(C(=O)Nc2ccc(CN3CCN(C)CC3)c(C(F)(F)F)c2)cc1C#Cc1cnc2cccnn12 [ponatinib] for me?
Output: 166

----------
- Format: in vivo, NSG mice
- measurement_setup: NSG, mouse, in vivo, po, 30 mg/kg, AUC0–24hrs, ponatinib 30 mg (30 mg/kg) single oral dose, NSG mice; median (5th-95th percentile)
endpoint: AUC(0-t) (ng·h/mL)
Return type: number; implicit unit ng·h/mL.

Input: Can you look up the measured AUC(0-t) of `Cc1ccc(C(=O)Nc2ccc(CN3CCN(C)CC3)c(C(F)(F)F)c2)cc1C#Cc1cnc2cccnn12` for me?
Output: 3000

----------
- Assay type: in vivo, NSG mice
- measurement_setup: NSG, mouse, in vivo, po, 30 mg/kg
endpoint: Cmax (ng/mL)
Return type: number; implicit unit ng/mL.

Input: Can you look up the measured Cmax of Cc1ccc(C(=O)Nc2ccc(CN3CCN(C)CC3)c(C(F)(F)F)c2)cc1C#Cc1cnc2cccnn12 [ponatinib] for me?
Output: 356

----------
- Type: in vivo, NSG mice
- measurement_setup: NSG, mouse, in vivo, po, 20 mg/kg
endpoint: Tmax
Number first, unit second.

Input: Can you look up the measured Tmax of `Cc1nc(Nc2ncc(C(=O)Nc3c(C)cccc3Cl)s2)cc(N2CCN(CCO)CC2)n1` for me?
Output: 1.17 h

----------
- Assay type: in vivo, NSG mice
- measurement_setup: NSG, mouse, in vivo, po, 30 mg/kg
endpoint: AUC(0-inf) (ng·h/mL)
Return type: number; implicit unit ng·h/mL.

Input: Can you look up the measured AUC(0-inf) of Cc1ccc(C(=O)Nc2ccc(CN3CCN(C)CC3)c(C(F)(F)F)c2)cc1C#Cc1cnc2cccnn12 [ponatinib] for me?
Output: 3010

----------
- Type: in vivo, NSG mice
- measurement_setup: NSG, mouse, in vivo, po, 20 mg/kg
endpoint: CL/F (mL/min/kg)
Return type: number; implicit unit mL/min/kg.

Input: Can you look up the measured CL/F of Cc1nc(Nc2ncc(C(=O)Nc3c(C)cccc3Cl)s2)cc(N2CCN(CCO)CC2)n1 [dasatinib] for me?
Output: 667

----------
- Type: in vivo, NSG mice
- measurement_setup: NSG, mouse, in vivo, po, 15 mg/kg
endpoint: Cmax (ng/mL)
Return type: number; implicit unit ng/mL.

Input: Can you look up the measured Cmax of `Cc1ccc(C(=O)Nc2ccc(CN3CCN(C)CC3)c(C(F)(F)F)c2)cc1C#Cc1cnc2cccnn12` for me?
Output: 181

----------
- Format: in vivo, NSG mice
- measurement_setup: NSG, mouse, in vivo, po, 30 mg/kg
endpoint: Tmax (h)
Return type: number; implicit unit h.

Input: Can you look up the measured Tmax of Cc1ccc(C(=O)Nc2ccc(CN3CCN(C)CC3)c(C(F)(F)F)c2)cc1C#Cc1cnc2cccnn12 [ponatinib] for me?
Output: 3.08

----------
- Type: in vivo, NSG mice
- measurement_setup: NSG, mouse, in vivo, po, 15 mg/kg
endpoint: AUC(0-inf) (ng·h/mL)
Return type: number; implicit unit ng·h/mL.

Input: Can you look up the measured AUC(0-inf) of `Cc1ccc(C(=O)Nc2ccc(CN3CCN(C)CC3)c(C(F)(F)F)c2)cc1C#Cc1cnc2cccnn12` for me?
Output: 1530
